# System: NCI/ADR-RES (drug-resistant ovarian carcinoma) cells
# ASSAY_TEXT: MTT cytotoxicity assay, NCI/ADR-RES
# Format: cell-based, human
# CONDITION_DESCRIPTION: 48 hours treatment, MTT; read-out: Cancerous (IC50, μM) NCl/ADR-RES
MEASURED_QUANTITY: IC50 (µM)
// return numeric value only (unit: µM, not printed)

**Q:** Need IC50, item H-KRWHWWRRHWVVW-NH2 [MAD1]
**A:** 85.6
